Assay name: in vitro
Test settings: human
Listing of entries alongside the reported CC50.
Measured property: CC50

Chem smiles	Measured property	Value reported
CC(C)(C)OC(=O)N[C@@H](CC(=O)O)C(=O)N(Cc1ccc(F)cc1)C1(C(=O)NCc2ccccc2)CCN(Cc2ccccc2)CC1	CC50	> 100 µM
COC(=O)CNC(=O)C1(N(Cc2ccccc2)C(=O)[C@H](CC(=O)OC)NC(=O)OC(C)(C)C)CCN(Cc2ccccc2)CC1	CC50	> 100 µM
COC(=O)C[C@H](NC(=O)OC(C)(C)C)C(=O)N(Cc1ccc(F)cc1)C(C)(C)C(=O)NCc1ccccc1	CC50	> 100 µM

====

Tested on: human embryonic lung (HEL) fibroblast cells
Test settings: mock-infected HEL cells; microscopically visible alterations in cell morphology
Each entry below carries its recorded Cytotoxicity MCC (minimal cytotoxic concentration).
Measured property: Cytotoxicity MCC (minimal cytotoxic concentration) (µM)

Compound	Relation sign	Value reported
CCC(C)N(C(=O)[C@H](CC(=O)OC)NC(=O)OC(C)(C)C)C1(C(=O)NCc2ccccc2)CCN(Cc2ccccc2)CC1 (stereo partly drawn) [Compound 20]	=	100
CCC(C)N(C(=O)[C@H](CC(=O)OC)NC(=O)OCc1ccccc1)C1(C(=O)NCc2ccccc2)CCN(Cc2ccccc2)CC1 (stereo partly drawn) [Compound 36]	=	40
COC(=O)C[C@H](NC(=O)OCc1ccccc1)C(=O)N(Cc1ccccc1)C1(C(=O)NCc2ccccc2)CCN(Cc2ccccc2)CC1 [Compound 33]	>	100
COC(=O)C[C@H](NC(=O)OC(C)(C)C)C(=O)N(Cc1ccc(F)cc1)C(C)(C)C(=O)NCc1ccccc1 [Compound 3]	>	100
COC(=O)C[C@H](NC(=O)OC(C)(C)C)C(=O)N(Cc1ccccc1)C1(C(=O)NC2CCCCC2)CCN(Cc2ccccc2)CC1 [Compound 16]	≥	40
COC(=O)C[C@H](N)C(=O)N(Cc1ccc(F)cc1)C1(C(=O)NCc2ccccc2)CCN(Cc2ccccc2)CC1 [Compound 31]	=	11
COC(=O)C[C@H](NC(=O)OCc1ccccc1)C(=O)N(Cc1ccccc1)C1(C(=O)NCc2ccccc2)CCN(CCc2ccc([N+](=O)[O-])cc2)CC1 [Compound 55]	=	60
Cc1ccc(CC(NC(=O)OC(C)(C)C)C(=O)N(Cc2ccccc2)C2(C(=O)NCc3ccccc3)CCN(Cc3ccccc3)CC2)cc1 (stereo not drawn) [Compound 52]	≥	100
COC(=O)C[C@H](NC(=O)OC(C)(C)C)C(=O)N(Cc1ccc(F)cc1)C1(C(=O)NCc2ccccc2)CCNCC1 [Compound 4]	=	100
COC(=O)C[C@H](NC(=O)OCc1ccccc1)C(=O)N(Cc1ccc(F)cc1)C1(C(=O)NCc2ccccc2)CCN(Cc2ccccc2)CC1 [Compound 34]	=	81
COC(=O)C[C@H](NC(=O)OCc1ccccc1)C(=O)N(Cc1ccccc1)C1(C(=O)NCc2ccccc2)CCN(CCc2ccc(F)cc2)CC1 [Compound 56]	=	32
CC(C)(C)OC(=O)N[C@@H](Cc1ccccc1)C(=O)N(Cc1ccccc1)C1(C(=O)NCc2ccccc2)CCN(Cc2ccccc2)CC1 [Compound 46]	≥	100
COC(=O)C[C@H](NC(=O)OC(C)(C)C)C(=O)N(Cc1ccc(C(F)(F)F)cc1)C1(C(=O)NCc2ccccc2)CCN(Cc2ccccc2)CC1 [Compound 24]	=	25
COc1ccc(CN2CCC(C(=O)NCc3ccccc3)(N(Cc3ccccc3)C(=O)C(Cc3ccccc3)NC(=O)OC(C)(C)C)CC2)cc1 (stereo not drawn) [Compound 62]	=	40
COC(=O)C[C@H](NC(=O)OCc1ccccc1)C(=O)N(CCNc1ccccc1)C1(C(=O)NCc2ccccc2)CCN(CCc2ccccc2)CC1 [Compound 58]	=	24
CC(C)(C)OC(=O)N[C@@H](Cc1ccc(F)cc1)C(=O)N(Cc1ccccc1)C1(C(=O)NCc2ccccc2)CCN(Cc2ccccc2)CC1 [Compound 49]	≥	100
COC(=O)C[C@H](NC(=O)OC(C)(C)C)C(=O)N(CCNc1ccccc1)C1(C(=O)NCc2ccccc2)CCN(Cc2ccccc2)CC1 [Compound 29]	=	75
COC(=O)C[C@H](NC(=O)OCc1ccccc1)C(=O)N(Cc1ccc(C)cc1)C1(C(=O)NCc2ccccc2)CCN(CCc2ccccc2)CC1 [Compound 59]	=	16
